# SYSTEM_NAME: T1, Human soluble IL-6R (human, UniProt P08887 20-358)
# T1 construct: Soluble recombinant form; biotinylated in some assays; also called hIL-6R; human IL-6R
# T1 sequence (looked up): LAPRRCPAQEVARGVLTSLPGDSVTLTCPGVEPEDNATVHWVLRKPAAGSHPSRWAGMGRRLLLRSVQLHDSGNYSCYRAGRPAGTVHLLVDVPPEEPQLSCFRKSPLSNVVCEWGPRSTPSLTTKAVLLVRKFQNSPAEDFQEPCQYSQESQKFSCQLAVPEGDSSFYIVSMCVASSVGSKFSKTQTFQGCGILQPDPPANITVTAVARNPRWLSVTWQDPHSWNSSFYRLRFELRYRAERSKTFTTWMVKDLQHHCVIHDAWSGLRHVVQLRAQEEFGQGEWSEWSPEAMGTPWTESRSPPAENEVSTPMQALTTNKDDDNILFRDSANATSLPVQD
# TEST_SUMMARY: Biacore, binding to IL-6R
MEASURE_NAME: kon (M⁻¹ s⁻¹)
Report only the number, with the unit M⁻¹ s⁻¹ understood.

Asked: Endpoint output: kon of IL6R83 (VHH) VHH: EVQLVESGGGLVQPGGSLRLSCAASGFTFDDYGMSWVRQAPGRATEWVSAISWNGNNTYYTESMKGRFTISRDNAKNTLYLQMNSLRPEDTAVYYCVKGSTAIVGVPPTYPDEYDYWGQGTLVTVSS . Value?
Given back: 350000

Asked: Endpoint output: kon of IL6R73 (VHH) VHH: EVQLVESGGGLVQPGGSLRLSCAASGFTFDDYDIGWFRQAPGKGREGVSGISSSDGNTYYADSVKGRFTISRDNAKNTVYLQMNSLRPEDTAVYYCAAEPPDSSWYLDGSPEFFKYWGQGTLVTVSS . Value?
Given back: 698000

Asked: Endpoint output: kon of IL6R71 (VHH) VHH: EVQLVESGGGLVQPGGSLRLSCAASGFTFDDYDIGWFRQAPGKGREGVSGISSSDGNTYYADSVKGRFTISSDNAKNTVYLQMNSLRPEDTAVYYCAAEPPDSSWYLDGSPEFFKYWGQGTLVTVSS . Value?
Given back: 703000
